B1: HDV Ribozyme (parent)
chain: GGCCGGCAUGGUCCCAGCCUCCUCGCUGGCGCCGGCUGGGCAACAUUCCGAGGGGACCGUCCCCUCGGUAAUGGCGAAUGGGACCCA

# Variants of: B1
# ASSAY INFO: self-cleavage, relative activity (ratio to wild type); higher = more cleavage; co-transcriptional
PROPERTY: self-cleavage
Simply state the number, no unit and no words.

{"columns": ["VARIANT SPEC", "self-cleavage"],
 "data": [
  ["C18A G40A", 0.0426],
  ["C44A G67A", 0.415],
  ["U20C G55C", 0.0791],
  ["C26A G29U", 0.032]
]}

Lab note: measured self-cleavage of C14A C26U was 1.07

Recorded self-cleavage (variant A8C G10A ): 0.95

Entry under test: G11C G50U . Its self-cleavage was 0.54

Field self-cleavage (entry C41A U60G ) reads 0.522

Kindly note the recorded self-cleavage for C7G A8G , which is 0.519

Notebook: G5C C33A , self-cleavage read as 0.26

self-cleavage reported for this variant G5A A78G : 0.178

U12C C13G has a reported self-cleavage of 0

self-cleavage for G52A C61A is 1.19

Please fill in: self-cleavage reported for A16C G29U = 0.0755

Given item U9G C63A , the value recorded as its self-cleavage is 0.935
